Origin of the recorded values: paper PMC3948331

Assay: in vitro
Conditions: human, Caco-2
PARAMETER: Papp A→B at 2 h, 10 µM (×10⁻⁶ cm/s)

compound="CC(=O)CC(c1ccccc1)c1c(O)c2ccccc2oc1=O (stereo not shown) [Warfarin]" value_units="×10⁻⁶ cm/s" observed_measurement=44.2

###

Test system: T. cruzi, strain Tulahuen C4 amastigotes
Assay: In vitro activity against T. cruzi intracellular amastigotes in L6 host cells
Format: cell-based, Trypanosoma cruzi
Details: Trypanosoma cruzi, TULAHUEN, L6, read-out: T. cruzi IC-50
pIC50: −log10 of the molar value.
Catalogue of compounds with associated pIC50
PARAMETER: pIC50

compound="O=[N+]([O-])c1ncn(CCCCNS(=O)(=O)c2cc(Cl)c(Cl)s2)n1 [Compound 12]" observed_measurement=6.43
compound="Cl.O=[N+]([O-])c1ncn(CCCNCCc2cccc(C(F)(F)F)c2)n1 [Compound 9]" observed_measurement=6.11
compound="O=C(Cn1ccnc1[N+](=O)[O-])NCc1ccccc1 [Bnz, benznidazole]" observed_measurement=5.84
compound="O=[N+]([O-])c1ncn(CCCNc2nc3ccc(Cl)cc3s2)n1 [Compound 10]" observed_measurement=7.23
compound="O=C(NCCCCn1cnc([N+](=O)[O-])n1)c1nc2ccccc2s1 [Compound 13]" observed_measurement=6.37
compound="O=[N+]([O-])c1ncn(CCCCNS(=O)(=O)c2ccc(Cl)s2)n1 [Compound 11]" observed_measurement=6.34

###

Assay: Cytotoxicity assessment in the host L6 cells
Assay type: cell-based
Settings: rat, L6 cells (rat skeletal myoblasts)
Catalogue of compounds with associated IC50
PARAMETER: IC50

compound="O=[N+]([O-])c1ncn(CCCNc2nc3ccc(Cl)cc3s2)n1 [Compound 10]" parameter=IC50 observed_measurement="102 µM"
compound="O=[N+]([O-])c1ncn(CCCCNS(=O)(=O)c2ccc(Cl)s2)n1 [Compound 11]" parameter=IC50 observed_measurement="128 µM"
compound="Cl.O=[N+]([O-])c1ncn(CCCNCCc2cccc(C(F)(F)F)c2)n1 [Compound 9]" parameter=IC50 observed_measurement="90.1 µM"
compound="O=C(NCCCCn1cnc([N+](=O)[O-])n1)c1nc2ccccc2s1 [Compound 13]" parameter=IC50 observed_measurement="154 µM"
compound="O=[N+]([O-])c1ncn(CCCCNS(=O)(=O)c2cc(Cl)c(Cl)s2)n1 [Compound 12]" parameter=IC50 observed_measurement="97.3 µM"

###

Test: Caco-2 monolayer permeability
Conditions: human
PARAMETER: Papp A→B at 2 h, 10 µM (×10⁻⁶ cm/s)

compound_smiles=CNC(=C[N+](=O)[O-])NCCSCc1ccc(CN(C)C)o1 value_units="×10⁻⁶ cm/s" observed_measurement=0.5
